assay.summary: Plasma CI-1034 concentrations in anesthetized dogs
Assay type: in vivo
conditions: intravenous, dog, 30 mg/kg, 15 minutes postdose
attribute.measured: concentration at 15 min (µg/mL)

compound: CCc1cc(C2=C(C(=O)[O-])N(c3ccccc3C(F)(F)F)S(=O)(=O)c3ccccc32)cc2c1OCO2.[K+] [CI-1034, monopotassium salt]
attribute.measured: concentration at 15 min
test.value: 221

* * *

assay.summary: Octanol-aqueous partition coefficient, shake-flask method with HPLC
Format: physicochemical
conditions: pH 7.4, 0.05 M Potassium Phosphate Buffer

molecule: CCc1cc(C2=C(C(=O)[O-])N(c3ccccc3C(F)(F)F)S(=O)(=O)c3ccccc32)cc2c1OCO2.[K+] [CI-1034, monopotassium salt]
logD: 0.56

* * *

Quick list: pIC50 per entry.
system: human ETB receptors (Homo sapiens)
Construct: expressed in transfected cells; host or cells: CHO cells
Sequence (P24530 27-442): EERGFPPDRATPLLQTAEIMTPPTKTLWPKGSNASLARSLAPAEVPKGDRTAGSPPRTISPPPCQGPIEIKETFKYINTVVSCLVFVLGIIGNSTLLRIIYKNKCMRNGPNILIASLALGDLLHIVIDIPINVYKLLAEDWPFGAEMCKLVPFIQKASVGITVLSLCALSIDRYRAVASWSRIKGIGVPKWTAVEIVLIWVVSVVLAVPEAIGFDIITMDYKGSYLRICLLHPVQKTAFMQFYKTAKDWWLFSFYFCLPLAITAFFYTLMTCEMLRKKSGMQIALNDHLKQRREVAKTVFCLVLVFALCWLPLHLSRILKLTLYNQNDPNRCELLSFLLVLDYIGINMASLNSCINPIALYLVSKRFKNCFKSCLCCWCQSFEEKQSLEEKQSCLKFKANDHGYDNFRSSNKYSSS
assay.summary: [125I]ET-3 binding to recombinant human ETB receptors (CHO cell membranes)
conditions: Table 1 comparison with known endothelin antagonists; read-out: Receptor Inhibition, Human ETB
pIC50: −log10 of the molar value.
attribute.measured: pIC50

molecule: COc1cc(OC)nc(O[C@H](C(=O)O)C(OC)(c2ccccc2)c2ccccc2)n1 [Darusentan]
attribute.measured: pIC50
test.value: 6.74
//
molecule: CCCOc1ccc2c(c1)[C@@H](c1ccc(OC)cc1OCCO)[C@H](C(=O)O)[C@H]2c1ccc2c(c1)OCO2 [Enrasentan]
attribute.measured: pIC50
test.value: 6.95

* * *

system: dog ETA receptors (Canis lupus familiaris)
Sequence (Q5KSU9 21-426): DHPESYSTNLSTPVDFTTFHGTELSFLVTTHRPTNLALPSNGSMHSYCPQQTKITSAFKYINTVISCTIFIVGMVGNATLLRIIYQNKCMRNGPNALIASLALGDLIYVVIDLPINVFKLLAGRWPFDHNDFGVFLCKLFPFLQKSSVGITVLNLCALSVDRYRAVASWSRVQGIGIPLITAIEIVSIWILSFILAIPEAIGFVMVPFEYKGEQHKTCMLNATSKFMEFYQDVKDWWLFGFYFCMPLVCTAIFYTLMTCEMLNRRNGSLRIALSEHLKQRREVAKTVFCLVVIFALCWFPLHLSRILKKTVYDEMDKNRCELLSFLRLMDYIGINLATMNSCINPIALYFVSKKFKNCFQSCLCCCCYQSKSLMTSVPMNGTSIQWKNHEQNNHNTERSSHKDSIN
pIC50: −log10 of the molar value.

molecule: CCc1cc(C2=C(C(=O)[O-])N(c3ccccc3C(F)(F)F)S(=O)(=O)c3ccccc32)cc2c1OCO2.[K+] [CI-1034, monopotassium salt]
system: dog ETA receptors (Canis lupus familiaris)
pIC50: 8.70

* * *

assay.summary: Plasma CI-1034 concentrations in anesthetized dogs
Assay type: in vivo
conditions: intravenous, dog, 60 mg/kg, 30 minutes postdose
attribute.measured: concentration at 30 min (µg/mL)

compound: CCc1cc(C2=C(C(=O)[O-])N(c3ccccc3C(F)(F)F)S(=O)(=O)c3ccccc32)cc2c1OCO2.[K+] [CI-1034, monopotassium salt]
test.value: 367

* * *

assay.summary: clinical
conditions: human, plasma, oral, 2 mg

compound: Cc1ncc2n1-c1ccc(Cl)cc1C(c1ccccc1F)=NC2 [midazolam]
unit.tag: ng·h/mL
AUC(0-t): 15.2

* * *

assay.summary: Plasma CI-1034 concentrations in anesthetized dogs
Type: in vivo, dog
conditions: plasma, intravenous; dog, 60 mg/kg, 5 minutes postdose

compound: CCc1cc(C2=C(C(=O)[O-])N(c3ccccc3C(F)(F)F)S(=O)(=O)c3ccccc32)cc2c1OCO2.[K+] [CI-1034, monopotassium salt]
concentration at 5 min / µg/mL: 574
